Test system: PC-3M
assay.notes: MTT cytotoxic activity assay, PC-3M
Type: cell-based
assay.context: Homo sapiens, read-out: IC50 PC-3M, 48 h
quantity.name: IC50

molecule: O=C(/C=C/c1ccc(O)cc1)c1ccc(O)cc1O [ISL, Isoliquiritigenin, reference compound]
target.under.test: PC-3M
test.value: 142 µM
//
molecule: CC(C)(C)OC(=O)N[C@@H](Cc1ccccc1Cl)C(=O)Oc1ccc(C(=O)/C=C/c2ccc(OC(=O)[C@@H](Cc3ccccc3Cl)NC(=O)OC(C)(C)C)cc2)c(O)c1 [Compound 16]
target.under.test: PC-3M
test.value: > 200 µM
//
molecule: CC(C)(C)OC(=O)NC(C(=O)Oc1ccc(/C=C/C(=O)c2ccc(OC(=O)C(NC(=O)OC(C)(C)C)C3CCCCC3)cc2O)cc1)C1CCCCC1 (stereo not drawn) [Compound 8]
target.under.test: PC-3M
test.value: > 200 µM

GET /values?item= CC(C)(C)OC(=O)N[C@@H](CCc1ccccc1)C(=O)Oc1ccc(/C=C/C(=O)c2ccc(O)cc2O)cc1 [Compound 13] &system= PC-3M returns IC50: 37.4 µM

GET /values?item= Cc1ccc(C[C@H](NC(=O)OC(C)(C)C)C(=O)Oc2ccc(C(=O)/C=C/c3ccc(OC(=O)[C@@H](Cc4ccc(C)cc4)NC(=O)OC(C)(C)C)cc3)c(O)c2)cc1 [Compound 22] &system= PC-3M returns IC50: > 200 µM

GET /values?item= CC(C)C[C@H](NC(=O)OC(C)(C)C)C(=O)Oc1ccc(/C=C/C(=O)c2ccc(OC(=O)[C@H](CC(C)C)NC(=O)OC(C)(C)C)cc2O)cc1 [Compound 1] &system= PC-3M returns IC50: > 200 µM

GET /values?item= CC(NC(=O)OC(C)(C)C)C(=O)Oc1ccc(C=CC(=O)c2ccc(O)cc2O)cc1 (stereo not drawn) [Compound 11] &system= PC-3M returns IC50: 122 µM
